Quick list: apparent KD of MS2 coat protein per entry.
Test system: MS2 coat protein
Assay: apparent KD of MS2 coat protein; designed switch direction (-1 OFF switch, 1 ON switch): -1; higher = weaker reporter binding
Settings: input ligand: FMN 200 uM

seq.text: AUUUACAAGCUAAGAUCCUACAUGAGGAUCACCCAUGUGGUCCGGUGACGUGAGUCACCGGACUUAGCUCGUCUUGA [salish99_S_TOV1_R5_082] (Eterna round: R97, puzzle: Sensor, turn-off variant 1)
apparent KD of MS2 coat protein [µM]: 0.0329

seq.text: UAAGAGUGAGGAUAUACGUCGCUGGUCUGGAUGGACGCAUGACAUGAGGAUCACCCAUGUAGAAGGCACAAAAC [Enxela Mod 11 - Jieux - Exclusion 2] (Eterna round: R97, puzzle: Exclusion 2)
apparent KD of MS2 coat protein [µM]: 0.153
